All values here come from paper PMC12829593.

Type: in vivo, human
Conditions: human, plasma, oral, AUCτ, Transplant group (n=12), concomitant tacrolimus, mean (SD); AUC24 (ELX, TEZ) or AUC12 (IVA)
QUANTITY: AUC (ng·h/mL)
Give bare numbers, in ng·h/mL.

Would you please look over these solved cases?
Cc1nn(C)cc1S(=O)(=O)NC(=O)c1ccc(-n2ccc(OCC(C)(C)C(F)(F)F)n2)nc1N1C[C@@H](C)CC1(C)C ... 200000
CC(C)(CO)c1cc2cc(NC(=O)C3(c4ccc5c(c4)OC(F)(F)O5)CC3)c(F)cc2n1C[C@@H](O)CO ... 82000

Now for another entry.
Task: Look at this molecule and give its reported AUC. CC(C)(C)c1cc(C(C)(C)C)c(NC(=O)c2c[nH]c3ccccc3c2=O)cc1O
Result: 9900

* * *

Assay type: in vivo, human
Settings: human, plasma, oral, T1/2, Transplant group (n=12), concomitant tacrolimus, mean (SD)
QUANTITY: half-life (h)
One number for each entry, in h.

CC(C)(C)c1cc(C(C)(C)C)c(NC(=O)c2c[nH]c3ccccc3c2=O)cc1O ... 7.8

Give measured half-life for every item shown.
1. CC(C)(CO)c1cc2cc(NC(=O)C3(c4ccc5c(c4)OC(F)(F)O5)CC3)c(F)cc2n1C[C@@H](O)CO
2. Cc1nn(C)cc1S(=O)(=O)NC(=O)c1ccc(-n2ccc(OCC(C)(C)C(F)(F)F)n2)nc1N1C[C@@H](C)CC1(C)C

Result:
[21, 23.6]

* * *

Record form. Attribute: Cmax. Fill in for each entry.
Format: in vivo, human
Conditions: human, plasma, oral, Cmax, Non-transplant group (n=14), plasma, steady state, mean (SD)
Please make sure the unit comes right after the number.

Would you please look over these solved cases?
CC(C)(CO)c1cc2cc(NC(=O)C3(c4ccc5c(c4)OC(F)(F)O5)CC3)c(F)cc2n1C[C@@H](O)CO [Tezacaftor, tezacaftor] ... 7460 ng/mL
Cc1nn(C)cc1S(=O)(=O)NC(=O)c1ccc(-n2ccc(OCC(C)(C)C(F)(F)F)n2)nc1N1C[C@@H](C)CC1(C)C [Elexacaftor, elexacaftor] ... 9080 ng/mL

Now for another entry.
Task: Look at this compound and give its reported Cmax. CC(C)(C)c1cc(C(C)(C)C)c(NC(=O)c2c[nH]c3ccccc3c2=O)cc1O [Ivacaftor, ivacaftor]
Result: 1380 ng/mL

* * *

Record form. Attribute: half-life. Fill in for each entry.
Assay type: in vivo, human
Details: human, plasma, oral, T1/2, Non-transplant group (n=14), mean (SD)
Numbers only, in min.

CC(C)(C)c1cc(C(C)(C)C)c(NC(=O)c2c[nH]c3ccccc3c2=O)cc1O [Ivacaftor, ivacaftor] ... 564
Cc1nn(C)cc1S(=O)(=O)NC(=O)c1ccc(-n2ccc(OCC(C)(C)C(F)(F)F)n2)nc1N1C[C@@H](C)CC1(C)C [Elexacaftor, elexacaftor] ... 2100

Now for another entry.
Task: Look at this molecule and give its reported half-life. CC(C)(CO)c1cc2cc(NC(=O)C3(c4ccc5c(c4)OC(F)(F)O5)CC3)c(F)cc2n1C[C@@H](O)CO [Tezacaftor, tezacaftor]
Result: 1140
